// reported log10 IC50 for each item listed
Molecular target: farnesyl protein transferase (Homo sapiens, UniProt P49354+P49356)
Test: In vitro assay for inhibition of farnesyl protein transferase
Type: biochemical
Conditions: negative log value of the IC50-value; read-out: Enzyme activity pIC50 (converted)
Measured metric: log10 IC50 (log10 of the value in µM)

[[record]]
molecule = "COc1ccc(C(O)(c2ccc3c(c2)C(c2cccc(Cl)c2)n2nnnc2N3)c2cncn2C)cc1 (stereo not shown) [Compound 3]"
numeric_result = -1.63

[[record]]
molecule = "COc1ccc(C(O)(c2ccc3c(c2)C(c2cccc(Cl)c2)n2nnnc2N3)c2cncn2C)cc1 (single isomer, unassigned) [Compound 8]"
numeric_result = -1.91

[[record]]
molecule = "CN1c2ccc(C(O)(c3ccc(I)cc3)c3cncn3C)cc2C(c2cccc(Cl)c2)n2nnnc21 (mixture of isomers)"
numeric_result = -1.72

[[record]]
molecule = "Cn1cncc1C(O)(c1ccc(F)cc1)c1ccc2c(c1)C(c1cccc(Cl)c1)n1nnnc1N2 (stereo not shown)"
numeric_result = -2.75

[[record]]
molecule = "COc1ccc(C(O)(c2ccc3c(c2)C(c2cccc(Cl)c2)n2nnnc2N3C)c2cncn2C)cc1 (mixture of isomers) [Compound 6]"
numeric_result = -1.85

[[record]]
molecule = "CN1c2ccc(C(O)(c3ccc(Cl)cc3)c3cncn3C)cc2C(c2cccc(Cl)c2)n2nnnc21 (mixture of isomers)"
numeric_result = -2.01

[[record]]
molecule = "Cn1cncc1C(O)(c1ccc(I)cc1)c1ccc2c(c1)C(c1cccc(Cl)c1)n1nnnc1N2 (mixture of isomers)"
numeric_result = -1.52

[[record]]
molecule = "COc1ccc(C(O)(c2ccc3c(c2)C(c2cccc(Cl)c2)n2nnnc2N3CC2CC2)c2cncn2C)cc1 (stereo not shown)"
numeric_result = -1.69

[[record]]
molecule = "COc1ccc(C(O)(c2ccc3c(c2)C(c2cccc(Cl)c2)n2nnnc2N3Cc2ccc(C#N)cc2)c2cncn2C)cc1 (mixture of isomers)"
numeric_result = -1.73

[[record]]
molecule = "CCOC(=O)CN1c2ccc(C(O)(c3ccc(OC)cc3)c3cncn3C)cc2C(c2cccc(Cl)c2)n2nnnc21 (mixture of isomers)"
numeric_result = -1.60

[[record]]
molecule = "COc1ccc(C(O)(c2ccc3c(c2)C(c2cccc(Cl)c2)n2nnnc2N3C)c2cncn2C)cc1 (mixture of isomers) [Compound 15]"
numeric_result = -1.78

[[record]]
molecule = "Cc1ccc(C(N)(c2ccc3c(c2)C(c2cccc(Cl)c2)n2nnnc2N3)c2cncn2C)cc1 (single isomer, unassigned) [Compound 4]"
numeric_result = -1.46


---

Molecular target: farnesyl protein transferase (Homo sapiens, UniProt P49354+P49356)
Assay: In vitro assay for inhibition of farnesyl protein transferase
Type: biochemical
Conditions: negative log value of the IC50-value; read-out: Enzyme activity pIC50 (converted)
// reported IC50 for each item listed
Measured metric: IC50

[[record]]
compound = "COc1ccc(C(O)(c2ccc3c(c2)C(c2cccc(Cl)c2)n2nnnc2N3)c2cncn2C)cc1 (single isomer, unassigned) [Compound 7]"
result = "< 100 nM"

[[record]]
compound = "CCOC(c1ccc(Cl)cc1)(c1ccc2c(c1)C(c1cccc(Cl)c1)n1nnnc1N2)c1cncn1C (stereo not drawn)"
result = "> 100 nM"

[[record]]
compound = "CN1c2ccc(C(O)(c3ccc(I)cc3)c3nncn3C)cc2C(c2cccc(Cl)c2)n2nnnc21 (mixture of isomers)"
result = "< 100 nM"

